molecular target: KRas G12D (Homo sapiens (Human), UniProt P01116, G12D); experiment: KRas G12D Binding Assay (TR-FRET displacement of Cy5 labelled tracer); conditions: GDP-loaded KRAS G12D (amino acids 1:169), 60 minute incubation at 22° C.
Sequence (P01116 other isoform, or with tags, fused parts or gaps G12D): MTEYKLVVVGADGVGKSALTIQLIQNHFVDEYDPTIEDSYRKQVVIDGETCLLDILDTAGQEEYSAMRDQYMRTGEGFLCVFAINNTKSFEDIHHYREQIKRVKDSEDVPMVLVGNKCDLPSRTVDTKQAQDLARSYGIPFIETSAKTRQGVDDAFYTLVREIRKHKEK
Catalogue of IC50 values
metric_name: IC50 (nM)

INSERT INTO measurements (smiles_text, experimental_target, measured_result) VALUES
  ('Oc1cc(-c2ncc3c(N4C[C@H]5CC[C@@H](C4)N5)nc(OC4CCOCC4)nc3c2F)c2ccccc2c1', 'KRas G12D (Homo sapiens (Human), UniProt P01116, G12D)', 513),
  ('OCC[C@@H](CO)Oc1nc(N2C[C@H]3CC[C@@H](C2)N3)c2cnc(-c3cccc4cccc(Cl)c34)c(F)c2n1', 'KRas G12D (Homo sapiens (Human), UniProt P01116, G12D)', 2330),
  ('Fc1cccc(-c2ncc3c(N4C[C@H]5CC[C@@H](C4)N5)nc(OCC45CCCN4CCC5)nc3c2F)c1OC(F)F', 'KRas G12D (Homo sapiens (Human), UniProt P01116, G12D)', 43.6),
  ('O=S1(=O)CCC(Oc2nc(N3C[C@H]4CC[C@@H](C3)N4)c3cnc(-c4cc(O)cc5ccccc45)c(F)c3n2)CC1', 'KRas G12D (Homo sapiens (Human), UniProt P01116, G12D)', 126);
